Source of measurements: ChEMBL document CHEMBL4304821

# assay-procedure: Cytotoxicity in human U2OS cells assessed as reduction in cell viability after […] by DRAQ5 staining based analysis
measure: CC50 (µM)
Numbers only, in µM.

For the molecule `N#CC1(NC(=O)[C@H](Cc2c[nH]c3ccccc23)N[C@H](c2ccccc2)C(F)(F)F)CC1` , what CC50 is on record? 33

###

# tested-on: Cruzipain (Trypanosoma cruzi, UniProt P25779)
# Sequence (P25779 whole entry): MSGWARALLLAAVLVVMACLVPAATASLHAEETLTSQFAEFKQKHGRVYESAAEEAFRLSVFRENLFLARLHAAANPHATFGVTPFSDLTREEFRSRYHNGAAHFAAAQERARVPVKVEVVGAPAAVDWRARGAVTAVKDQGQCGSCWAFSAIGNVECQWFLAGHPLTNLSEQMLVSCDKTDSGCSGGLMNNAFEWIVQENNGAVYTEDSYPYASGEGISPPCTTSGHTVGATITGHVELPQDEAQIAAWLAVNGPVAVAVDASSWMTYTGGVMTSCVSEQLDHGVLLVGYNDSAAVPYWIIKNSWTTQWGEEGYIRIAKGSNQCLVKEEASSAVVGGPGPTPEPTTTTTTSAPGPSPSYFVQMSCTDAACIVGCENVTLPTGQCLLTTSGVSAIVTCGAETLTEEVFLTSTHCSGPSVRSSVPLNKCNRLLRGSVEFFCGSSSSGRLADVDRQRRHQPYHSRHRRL
# assay-procedure: Inhibition of Trypanosoma cruzi cruzain assessed as inhibitor constant using Z-Phe-Arg-7-amido-4-methylcoumarin as substrate preincubated for 2 mins followed by susbtrate addition by fluorescence based analysis
Answer each item with its documented Ki.
Numbers only, in nM.

Please review the entries below; each comes with its answer.
Form: Entry = `COc1ccc(C[C@H](N[C@@H](c2ccccc2)C(F)(F)F)C(=O)O)cc1` | System = Cruzipain (Trypanosoma cruzi, UniProt P25779) | Ki = ____ 38.8

Form: Entry = `O=C(O)[C@H](Cc1c[nH]c2ccccc12)N[C@H](c1cccc(Cl)c1)C(F)(F)F` | System = Cruzipain (Trypanosoma cruzi, UniProt P25779) | Ki = ____ 168

Form: Entry = `CC(C)C[C@H](N[C@@H](c1ccc(-c2ccc(F)cc2)cc1)C(F)(F)F)C(=O)NC1(C#N)CC1` | System = Cruzipain (Trypanosoma cruzi, UniProt P25779) | Ki = ____ 4060

For each of the molecules below, state Ki.
1. O=C(O)[C@H](Cc1c[nH]c2ccccc12)N[C@@H](c1cccc(Cl)c1)C(F)(F)F
2. CC(C)C[C@H](N[C@H](c1ccccc1)C(F)(F)F)C(=O)NC1(C#N)CC1
3. N#CC1(NC(=O)[C@H](Cc2ccccc2)N[C@@H](c2cccc(Cl)c2)C(F)(F)F)CC1
4. COc1ccc(C[C@H](N[C@H](c2ccccc2)C(F)(F)F)C(=O)O)cc1

1: 142; 2: 143; 3: 4.01; 4: 360
